B1: TRAF3IP2 (parent)
chain: YGHDYPRAAYQQVIQPALPGQPLP

variants of: B1; assay: protein stability index of a GFP-peptide fusion (GPS, HEK-293T) (PSI 1-6); higher = more stable; settings: c terminus: a fixed tail appended;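 note: lentivirally expressed fusions sorted by FACS into six bins by GFP to DsRed ratio, PSI derived from sequencing read proportions per bin multiplied by bin number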
Property: protein stability index
// keep it numeric: no unit symbol after the value

Qu. GET /values?readout=protein stability index&item= YGHDYPRAAYQQVIQPAKPGQPLP [L18K]
Ans. 2.15

Qu. GET /values?readout=protein stability index&item= YGHDYPRAAYKQVIQPALPGQPLP [Q11K]
Ans. 2.24

Qu. GET /values?readout=protein stability index&item= YGHEYPRAAYQQVIQPALPGQPLP [D4E]
Ans. 1.81

Qu. GET /values?readout=protein stability index&item= YGHDYDRAAYQQVIQPALPGQPLP [P6D]
Ans. 3.52

Qu. GET /values?readout=protein stability index&item= YGHDEPRAAYQQVIQPALPGQPLP [Y5E]
Ans. 3.88

Qu. GET /values?readout=protein stability index&item= YGHDYPRAAYQQVIQPALPGQPDP [L23D]
Ans. 2.18

Qu. GET /values?readout=protein stability index&item= YSHDYPRAAYQQVIQPALPGQPLP [G2S]
Ans. 2.56

Qu. GET /values?readout=protein stability index&item= YGHDYPRAAYQIVIQPALPGQPLP [Q12I]
Ans. 2.59

Qu. GET /values?readout=protein stability index&item= YGHDYPRAAYQQVIQPALPGQPRP [L23R]
Ans. 2.28

Qu. GET /values?readout=protein stability index&item= YDHDYPRAAYQQVIQPALPGQPLP [G2D]
Ans. 3.43

Qu. GET /values?readout=protein stability index&item= YGHDYPRAAYQQVIQPILPGQPLP [A17I]
Ans. 2.37
